Where do these numbers come from? They come from PubChem BioAssay (EPA / NIEHS).

- measuredOn: human Raf-1 Proto-Oncogene, serine/threonine Kinase (RAF1), RAF1 (gene 5894) (UniProt P04049)
- Sequence (P04049 whole entry, looked up): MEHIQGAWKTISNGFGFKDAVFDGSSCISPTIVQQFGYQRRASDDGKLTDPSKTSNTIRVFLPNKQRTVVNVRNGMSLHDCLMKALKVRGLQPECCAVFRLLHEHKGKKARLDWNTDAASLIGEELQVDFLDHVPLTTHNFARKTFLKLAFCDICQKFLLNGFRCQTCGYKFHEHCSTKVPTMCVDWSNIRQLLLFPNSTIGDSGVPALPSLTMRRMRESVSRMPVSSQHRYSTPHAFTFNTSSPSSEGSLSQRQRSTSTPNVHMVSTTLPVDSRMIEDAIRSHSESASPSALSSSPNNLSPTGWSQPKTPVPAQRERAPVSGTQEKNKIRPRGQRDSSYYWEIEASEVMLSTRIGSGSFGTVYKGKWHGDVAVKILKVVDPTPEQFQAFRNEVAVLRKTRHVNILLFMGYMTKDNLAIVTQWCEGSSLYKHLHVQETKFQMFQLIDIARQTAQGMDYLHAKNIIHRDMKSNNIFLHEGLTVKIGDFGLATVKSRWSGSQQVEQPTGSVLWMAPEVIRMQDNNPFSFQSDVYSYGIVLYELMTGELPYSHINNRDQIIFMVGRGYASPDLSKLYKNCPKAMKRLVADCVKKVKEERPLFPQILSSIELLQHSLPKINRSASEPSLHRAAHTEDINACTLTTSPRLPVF
- procedureSummary: NVS_ENZ_hRAF1: NovaScreen (NVS) Enzymatic Assay for human Raf-1 Proto-Oncogene, serine/threonine Kinase (RAF1) (AID 2283216)
Inconclusive results are not listed. Activity calls are given as the source filed them. The calls were made as follows: active = hit-call score of the fitted dose curve at least 0.9, where 1 is the maximum; inconclusive = response in the unintended direction; inactive = score below 0.9.
Respond only with the outcome that fits, drawn from 1 (active), 0 (inactive)

For orientation, consider the following solved cases.
INSERT INTO assay_data (smilesentry, classassignment) VALUES
  ('CCCOc1nn(C(=O)NS(=O)(=O)c2ccccc2C(=O)OC)c(=O)n1C', 0),
  ('CN(C)[C@@H]1C(=O)C(C(N)=O)=C(O)[C@@]2(O)C(=O)C3=C(O)c4c(O)cccc4[C@@](C)(O)[C@H]3[C@H](O)[C@@H]12', 1),
  ('CCCOCC(=Nc1ccc(Cl)cc1C(F)(F)F)n1ccnc1', 0);

Pending compound:
Could you please tell me the result logged for CN(C)NC(=O)CCC(=O)O in this assay?
0

====

- measuredOn: Ratio of Nucleoli Translocation and Cytoplasm, AR (gene 367) (UniProt P10275)
- Sequence (P10275 whole entry, looked up): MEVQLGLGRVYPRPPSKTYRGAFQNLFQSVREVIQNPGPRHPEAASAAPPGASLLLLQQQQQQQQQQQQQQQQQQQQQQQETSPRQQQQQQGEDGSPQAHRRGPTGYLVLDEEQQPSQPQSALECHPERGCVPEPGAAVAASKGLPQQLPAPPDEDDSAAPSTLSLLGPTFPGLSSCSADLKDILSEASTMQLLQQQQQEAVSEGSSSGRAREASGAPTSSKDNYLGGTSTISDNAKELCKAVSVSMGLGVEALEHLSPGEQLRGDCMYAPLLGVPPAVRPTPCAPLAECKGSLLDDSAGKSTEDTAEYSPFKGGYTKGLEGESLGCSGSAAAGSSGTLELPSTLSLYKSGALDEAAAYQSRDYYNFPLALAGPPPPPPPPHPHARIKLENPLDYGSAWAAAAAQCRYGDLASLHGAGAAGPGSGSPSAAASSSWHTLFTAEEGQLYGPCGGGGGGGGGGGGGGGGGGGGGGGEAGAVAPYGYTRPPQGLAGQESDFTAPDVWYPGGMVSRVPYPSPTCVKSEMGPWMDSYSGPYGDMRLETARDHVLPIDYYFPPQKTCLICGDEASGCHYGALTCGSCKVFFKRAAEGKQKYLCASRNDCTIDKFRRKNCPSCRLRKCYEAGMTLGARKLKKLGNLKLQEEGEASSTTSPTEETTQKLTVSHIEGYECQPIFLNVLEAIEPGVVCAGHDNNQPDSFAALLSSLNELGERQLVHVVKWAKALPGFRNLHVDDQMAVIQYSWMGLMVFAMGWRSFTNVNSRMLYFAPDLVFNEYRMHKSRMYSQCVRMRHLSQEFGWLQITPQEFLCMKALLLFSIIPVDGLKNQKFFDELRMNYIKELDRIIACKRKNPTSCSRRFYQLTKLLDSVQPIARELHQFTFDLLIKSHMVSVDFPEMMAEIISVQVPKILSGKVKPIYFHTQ
- procedureSummary: UPITT_HCI_U2OS_AR_TIF2_Nucleoli_Cytoplasm_Ratio_Antagonist: University of Pittsburgh U2OS Androgen Receptor-Transcriptional Intermediary Factor 2 (AR-TIF2) Antagonism High Content Imaging Assay for Ratio of Nucleoli Translocation and Cytoplasm (AID 2283999);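 also: antagonists lower the DHT-driven ratio of nucleolar to cytoplasmic red signal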
- Excerpt: UPITT_AR_TIF2_PPIB is a cell-based, high-content imaging assay that uses U2OS, a human osteosarcoma cell line, expressing a human androgen receptor fused to red fluorescent protein and the coactivator TIF2 fused to green fluorescent protein. UPITT_HCI_U2OS_AR_TIF2_Nucleoli_Cytoplasm_Ratio_Antagonist is one of four assay components measured from the UPITT_AR_TIF2_PPIB assay. […]
Records with an inconclusive call do not appear. Active and inactive are the calls of the source. Rule for the calls: active = hit-call score of the fitted dose curve at least 0.9, where 1 is the maximum; inconclusive = response in the unintended direction; inactive = score below 0.9.
Respond only with the outcome that fits, drawn from active, inactive

INSERT INTO assay_data (compound, classassignment) VALUES
  ('Nc1c(Cl)cc([N+](=O)[O-])cc1Cl', 'inactive'),
  ('N#CSCSC#N', 'active'),
  ('COc1ccc(C(=CC(=O)N2CCOCC2)c2ccc(Cl)cc2)cc1OC', 'active'),
  ('CCCSP(=O)(OCC)SCCC', 'inactive'),
  ('CC(COc1ccc(Oc2ccccc2)cc1)Oc1ccccn1 (stereo not drawn)', 'inactive');

Could you please tell me the result logged for CC(C)=CC1C(C(=O)OCN2C(=O)C3=C(CCCC3)C2=O)C1(C)C (stereo not drawn) in this assay?
inactive

Could you please tell me the result logged for CCCOc1nn(C(=O)NS(=O)(=O)c2ccccc2C(=O)OC)c(=O)n1C in this assay?
inactive

Could you please tell me the result logged for COP(=O)(OC)OC(Br)C(Cl)(Cl)Br (stereo not drawn) in this assay?
inactive

Could you please tell me the result logged for CCOP(=O)(NC(C)C)Oc1ccc(SC)c(C)c1 (stereo not drawn) in this assay?
inactive

Could you please tell me the result logged for CCc1cccc(CC)c1N(COC)C(=O)CCl in this assay?
active

Could you please tell me the result logged for C=C(C)[C@H]1Cc2c(ccc3c2O[C@@H]2COc4cc(OC)c(OC)cc4[C@@H]2C3=O)O1 in this assay?
inactive

Could you please tell me the result logged for Cc1nn(-c2cc(NS(C)(=O)=O)c(Cl)cc2Cl)c(=O)n1C(F)F in this assay?
inactive

Could you please tell me the result logged for CCCCOC(=O)c1ccccc1C(=O)O in this assay?
inactive

====

- procedureSummary: APR_HepG2_CellLoss_72hr: Apredica 72-hour HepG2 Assay for Cell Loss (AID 2282915)
- experimentalParameters: high-content imaging
The source made the active and inactive calls. How the source made its calls: active means hit-call score of the fitted dose curve at least 0.9, where 1 is the maximum; inactive means score below 0.9.
Respond only with the outcome that fits, drawn from true for active, false for inactive

For orientation, consider the following solved cases.
INSERT INTO results (compound, classassignment) VALUES
  ('CNc1cnn(-c2cccc(C(F)(F)F)c2)c(=O)c1Cl', 'false'),
  ('CN(C)NC(=O)CCC(=O)O', 'false'),
  ('CC(COc1ccc(Oc2ccccc2)cc1)Oc1ccccn1 (stereo unspecified)', 'true'),
  ('Nc1nc(N)nc(NC2CC2)n1', 'false'),
  ('CCCCN(CC)c1c([N+](=O)[O-])cc(C(F)(F)F)cc1[N+](=O)[O-]', 'true');

Pending compound:
Could you please tell me the result logged for CCOP(=O)(SC(C)CC)N1CCSC1=O (stereo unspecified) in this assay?
false

====

- measuredOn: Tyrosine-protein phosphatase non-receptor type 14 (Homo sapiens)
- procedureSummary: NVS_ENZ_hPTPN14: NovaScreen (NVS) Enzymatic Assay for human Protein Tyrosine Phosphatase Non-receptor Type 14 (PTPN14) (AID 2283206)
Records with an inconclusive call do not appear. Active and inactive are the calls of the source. How the source made its calls: active means hit-call score of the fitted dose curve at least 0.9, where 1 is the maximum; inconclusive means response in the unintended direction; inactive means score below 0.9.
Respond only with the outcome that fits, drawn from active, inactive

Could you please tell me the result logged for CN(C)[C@@H]1C(=O)C(C(N)=O)=C(O)[C@@]2(O)C(=O)C3=C(O)c4c(O)cccc4[C@@](C)(O)[C@H]3[C@H](O)[C@@H]12 in this assay?
active

Could you please tell me the result logged for CC(C)N(C(=O)SCC(Cl)=C(Cl)Cl)C(C)C in this assay?
inactive

Could you please tell me the result logged for Nc1nc(N)nc(NC2CC2)n1 in this assay?
inactive

Could you please tell me the result logged for N#CSCSC#N in this assay?
inactive

Could you please tell me the result logged for CCC(=NOC/C=C/Cl)C1=C(O)CC(C2CCOCC2)CC1=O (stereo not drawn) in this assay?
inactive

Could you please tell me the result logged for CSC1=N[C@@](C)(c2ccccc2)C(=O)N1Nc1ccccc1 in this assay?
inactive

Could you please tell me the result logged for CNC(=O)Oc1cccc2c1OC(C)(C)O2 in this assay?
inactive

Could you please tell me the result logged for CCCCOC(=O)c1ccccc1C(=O)O in this assay?
inactive

====

- procedureSummary: BSK_3C_Vis: BioMAP Diversity Plus: 3C Assay for Morphology Visualization (AID 2283025);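 also: fitted both ways so gain or loss versus DMSO counts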
- experimentalParameters: primary human endothelial cells (HUVEC)
The source made the active and inactive calls. Rule for the calls: active = hit-call score of the fitted dose curve at least 0.9, where 1 is the maximum; inactive = score below 0.9.
Respond only with the outcome that fits, drawn from active, inactive

For orientation, consider the following solved cases.
INSERT INTO assay_data (compound, classassignment) VALUES
  ('CSc1nc(NC(C)C)nc(NC(C)C)n1', 'inactive'),
  ('CCOP(=O)(OCC)Oc1cc(C)nc(C(C)C)n1', 'active'),
  ('COP(=O)(NC(C)=O)SC (stereo unspecified)', 'inactive'),
  ('CN(C)C(=O)Nc1cccc(C(F)(F)F)c1', 'active'),
  ('CC[C@H](C)[C@H]1O[C@]2(C=C[C@@H]1C)C[C@@H]1C[C@@H](C/C=C(\C)[C@@H](O[C@H]3C[C@H](OC)[C@@H](O[C@H]4C[C@H](OC)[C@@H](NC)[C@H](C)O4)[C@H](C)O3)[C@@H](C)/C=C/C=C3\CO[C@@H]4[C@H](O)C(C)=C[C@@H](C(=O)O1)[C@]34O)O2', 'active');

Could you please tell me the result logged for C=C(C)[C@H]1Cc2c(ccc3c2O[C@@H]2COc4cc(OC)c(OC)cc4[C@@H]2C3=O)O1 in this assay?
active

Could you please tell me the result logged for C[N+]1(C)CCCCC1 in this assay?
inactive

Could you please tell me the result logged for CCNc1nc(Cl)nc(NC(C)(C)C#N)n1 in this assay?
inactive

Could you please tell me the result logged for CN(C)NC(=O)CCC(=O)O in this assay?
inactive

Could you please tell me the result logged for C[Si](Cn1cncn1)(c1ccc(F)cc1)c1ccc(F)cc1 in this assay?
active

Could you please tell me the result logged for CCCCSP(=O)(SCCCC)SCCCC in this assay?
active

Could you please tell me the result logged for Cc1nn(-c2cc(NS(C)(=O)=O)c(Cl)cc2Cl)c(=O)n1C(F)F in this assay?
inactive

Could you please tell me the result logged for COc1cc(OC)nc(Sc2cccc(Cl)c2C(=O)O)n1 in this assay?
inactive

Could you please tell me the result logged for O=c1ccc(=O)[nH][nH]1 in this assay?
inactive

Could you please tell me the result logged for COP(=O)(OC)C(O)C(Cl)(Cl)Cl (stereo unspecified) in this assay?
active

Could you please tell me the result logged for CCOC(=O)CC(SP(=O)(OC)OC)C(=O)OCC (stereo unspecified) in this assay?
inactive

====

- procedureSummary: NVS_IC_rCaBTZCHL: NovaScreen (NVS) Ion Channel Assay for Calcium Channel, Type L, Benzothiazepine Site (CaBTZCHL) (AID 2283337)
- Protocol: NVS_IC_rCaBTZCHL is a biochemical, single-readout assay that uses extracted gene-proteins from Rat cortical membranes in a tissue-based cell-free assay. Measurements were taken 1.5 hours after chemical dosing in a 48-well plate.NVS_IC_rCaBTZCHL is one of one assay component(s) measured or calculated from the NVS_IC_rCaBTZCHL assay. […] This assay endpoint, NVS_IC_rCaBTZCHL, was analyzed in the positive analysis fitting direction relative to DMSO as the negative control and baseline of activity. […]
Results filed as inconclusive are left out. Calls of active or inactive are those of the source. How the source made its calls: active means hit-call score of the fitted dose curve at least 0.9, where 1 is the maximum; inconclusive means response in the unintended direction; inactive means score below 0.9.
measuredEndpoint: AC50

INSERT INTO measurements (compound, measuredendpoint, recordedmeasurement) VALUES
  ('COc1ccc(C(=CC(=O)N2CCOCC2)c2ccc(Cl)cc2)cc1OC', 'AC50', 'inactive'),
  ('CC1=NNC(=O)N(/N=C/c2cccnc2)C1', 'AC50', 'inactive'),
  ('CC[C@H](C)[C@H]1O[C@]2(C=C[C@@H]1C)C[C@@H]1C[C@@H](C/C=C(\C)[C@@H](O[C@H]3C[C@H](OC)[C@@H](O[C@H]4C[C@H](OC)[C@@H](NC)[C@H](C)O4)[C@H](C)O3)[C@@H](C)/C=C/C=C3\CO[C@@H]4[C@H](O)C(C)=C[C@@H](C(=O)O1)[C@]34O)O2', 'AC50', '10 µM (active)'),
  ('FC(F)C(F)(F)OCC(Cn1cncn1)c1ccc(Cl)cc1Cl (centres undefined)', 'AC50', '7.26 µM (active)');
